src = patent US6946470B2

# Study system: serotonin 5-HT2 receptors (Rattus norvegicus, UniProt P14842)
# Construct: from tissue; host or cells: rat whole brain (except cerebellum) membranes
# Sequence (P14842 whole entry): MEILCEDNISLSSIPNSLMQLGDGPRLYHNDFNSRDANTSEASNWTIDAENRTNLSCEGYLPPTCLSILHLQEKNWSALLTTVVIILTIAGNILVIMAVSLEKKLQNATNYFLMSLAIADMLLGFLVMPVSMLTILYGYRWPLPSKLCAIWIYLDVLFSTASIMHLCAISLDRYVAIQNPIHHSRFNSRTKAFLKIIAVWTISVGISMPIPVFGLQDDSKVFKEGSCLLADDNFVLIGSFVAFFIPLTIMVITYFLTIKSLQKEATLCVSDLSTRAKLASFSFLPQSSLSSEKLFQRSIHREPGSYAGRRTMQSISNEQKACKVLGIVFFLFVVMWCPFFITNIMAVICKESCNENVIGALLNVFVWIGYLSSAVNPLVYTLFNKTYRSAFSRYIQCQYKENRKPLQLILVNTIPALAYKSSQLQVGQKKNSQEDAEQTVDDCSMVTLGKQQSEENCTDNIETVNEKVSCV
# Assay details: Serotonin 5-HT2 receptor binding assay ([3H]Ketanserin)
# Condition info: 30 nM, rat whole brain membranes
# Protocol: Serotonin 5-HT2 Receptor Binding Assay This assay measures binding of [^3H]Ketanserin to serotonin 5-HT2 receptors. Whole brain (except cerebellum) membranes of male Wistar derived rats weighing 175±25 g were prepared in Tris-HCl pH 7.7 buffer. A 10 mg aliquot of membrane was incubated with 0.5 nM [^3H]Ketanserin for 40 minutes at 25° C. […] Membranes were filtered and washed three times and the filters were counted to determine [^3H]Ketanserin specifically bound. […]
Tick rule met if inhibition at 0.03 µM is 10% or greater. Tick rule not met if inhibition at 0.03 µM is less than 10%.

Compound	Category label
O=C1Nc2ccccc2C2=NC(CN3CCN(Cc4ccccc4)CC3)CN12 (stereo not drawn)	rule met
O=C1Nc2ccccc2C2=NC(CN3CCN(Cc4ccc5c(c4)OCO5)CC3)CN12 (stereo not drawn)	rule not met
O=C1Nc2ccccc2C2=NC(CC3CCC4(CCCCC4)NC3)CN12 (stereo not drawn)	rule not met
O=C1Nc2ccccc2C2=NC(CNC3CCN(Cc4ccccc4)CC3)CN12 (stereo not drawn)	rule met
O=C1Nc2ccccc2C2=NC(CN3CCC(Cc4ccccc4)CC3)CN12 (stereo not drawn)	rule met
O=C1Nc2ccccc2C2=NC(CN3CCN(Cc4ccc(F)cc4)CC3)CN12 (stereo not drawn)	rule met

* * *

Each entry below lists one item and its recorded inhibition at 0.03 µM value.
# Study system: human dopamine D2L receptors (Homo sapiens)
# Construct: expressed in transfected cells
# Sequence (P14416 whole entry): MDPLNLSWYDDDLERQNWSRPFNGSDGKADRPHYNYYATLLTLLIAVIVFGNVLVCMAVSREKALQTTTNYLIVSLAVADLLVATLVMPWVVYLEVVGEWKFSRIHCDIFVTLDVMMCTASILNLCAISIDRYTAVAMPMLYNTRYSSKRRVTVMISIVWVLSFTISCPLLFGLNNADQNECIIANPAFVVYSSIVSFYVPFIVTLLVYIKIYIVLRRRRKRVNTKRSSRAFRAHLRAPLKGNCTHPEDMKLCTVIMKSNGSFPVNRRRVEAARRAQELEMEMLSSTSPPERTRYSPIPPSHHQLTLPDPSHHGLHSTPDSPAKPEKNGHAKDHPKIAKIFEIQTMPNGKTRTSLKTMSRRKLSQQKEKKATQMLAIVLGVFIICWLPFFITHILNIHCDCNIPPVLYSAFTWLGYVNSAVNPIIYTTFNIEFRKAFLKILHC
# Assay details: Dopamine D2L receptor binding assay ([3H]Spiperone)
# Condition info: 30 nM, CHO cell membranes

Compound	Readout units	inhibition at 0.03 µM
O=C1Nc2ccccc2C2=NC(CN3CCN(Cc4ccccc4)CC3)CN12 (stereo not drawn) [PDC-121]	%	18
O=C1Nc2ccccc2C2=NC(CN3CCN(Cc4ccc(F)cc4)CC3)CN12 (stereo not drawn) [PDC-127]	%	11
O=C1Nc2ccccc2C2=NC(CNC3CCN(Cc4ccccc4)CC3)CN12 (stereo not drawn) [PDC-126]	%	29
O=C1Nc2ccccc2C2=NC(CC3CCC4(CCCCC4)NC3)CN12 (stereo not drawn) [PDC-122]	%	13
O=C1Nc2ccccc2C2=NC(CN3CCN(Cc4ccc5c(c4)OCO5)CC3)CN12 (stereo not drawn) [PDC-123]	%	11
O=C1Nc2ccccc2C2=NC(CN3CCC(Cc4ccccc4)CC3)CN12 (stereo not drawn) [PDC-124]	%	14
